// reported TGI per item
test system: OVCAR-8 ovarian; experiment: NCI tumour cell line growth inhibition, 48 h

Sample records with TGI:
Lab note: need TGI for COc1ccccc1/C=C/c1nc2ccccc2o1 on OVCAR-8 ovarian, anyone have it?
> 10 µM

Can you look up TGI on OVCAR-8 ovarian for Nc1nc(-c2cc(-c3cccc4ccccc34)nc(N)n2)cc(-c2cccc3ccccc23)n1 ?
> 100 µM

Query the reported TGI for OVCAR-8 ovarian; item: NC(N)=NS(=O)(=O)c1ccc(NC(=O)c2ccc3nc4ccccc4c(N)c3c2)cc1
> 100 µM

I'm curious: which TGI was measured for Clc1ccc(N2CCC(N3CCCC3)CC2)cc1-c1nc2ccccc2[nH]1 tested on OVCAR-8 ovarian?
60.6 µM

Give the reported TGI for C=CCN1C[C@@H](C)N([C@@H](c2ccc(C(=O)N(CC)CC)cc2)c2cccc(OC)c2)C[C@@H]1C (system: OVCAR-8 ovarian).
> 100 µM

TGI of COc1cc(Nc2nc3ccccc3nc2C(C)C)cc(OC)c1OC on OVCAR-8 ovarian?
> 100 µM

New cases:
Report TGI for CC(=O)/C(=C\c1c(-c2ccccc2)[nH]c2ccccc12)S(=O)(=O)c1ccccc1 tested on OVCAR-8 ovarian.
9.89 µM

Item CC(=O)c1ccccc1NS(=O)(=O)c1ccc2nc(C)n(NS(=O)(=O)c3ccccc3C(C)=O)c(=O)c2c1 with OVCAR-8 ovarian - TGI?
> 100 µM

Data origin: PubChem BioAssay (NCI)
